Hey, just so you know, these numbers are from patent US20060252807A1.

pIC50 values by entry
# ASSAYED_SYSTEM: active p38 alpha enzyme (Upstate Biotechnology) (Homo sapiens)
# Construct: purchased Upstate Biotechnology
# Sequence (Q16539 whole entry): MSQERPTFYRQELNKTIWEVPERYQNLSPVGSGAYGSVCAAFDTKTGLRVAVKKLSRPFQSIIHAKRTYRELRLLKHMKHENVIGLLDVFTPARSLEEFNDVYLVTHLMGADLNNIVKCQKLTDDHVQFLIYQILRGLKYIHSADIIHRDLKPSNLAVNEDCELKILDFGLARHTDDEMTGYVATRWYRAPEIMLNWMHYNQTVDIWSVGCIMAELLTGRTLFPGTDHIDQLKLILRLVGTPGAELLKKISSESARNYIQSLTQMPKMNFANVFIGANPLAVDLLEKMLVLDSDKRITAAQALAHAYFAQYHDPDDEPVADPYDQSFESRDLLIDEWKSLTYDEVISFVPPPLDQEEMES
# EXPERIMENTAL_PROTOCOL: p38α biochemical assay (ATP turnover, luminescent detection, Cambrex PKlight)
# CONDITION: p38α biochemical assay, Table 1 Biological Activity
pIC50: −log10 of the molar value.

Example compounds with recorded pIC50:
| COMPOUND | pIC50 |
| --- | --- |
| CC(C)NC(=O)c1csc(-c2oc(CNC(=O)/C=C/c3ccccc3)nc2-c2ccc(F)cc2)n1 | ≥ 6.00 |
| CC(C)NC(=O)c1csc(-c2oc(CN3CCN(C(=O)c4cc(Cl)c(O)c(Cl)c4)CC3)nc2-c2ccc(F)cc2)n1 | < 6.00 |
| CC(C)NC(=O)c1csc(-c2c(-c3ccc(F)cc3)noc2CNC(=O)C2CN(C(=O)OC(C)(C)C)CCN2)n1 (stereo not shown) [Example 789] | < 6.00 |

Proceed to the following item.
Record CC(C)NC(=O)c1csc(-c2oc(CNC(=O)c3cc(Cl)c(O)c(Cl)c3)nc2-c2ccc(F)cc2)n1 . Reported pIC50: ≥ 6.00
